These data points were gathered from ChEMBL document CHEMBL1773032.

- Tested on: HCT-116
- assay text: Cytotoxicity against human HCT116 cells measured per disk after 5 days by hemocytometer counting
- Format: functional, cell-based
Define the label as Criterion met when IC50 is strictly less than 0.06 µg and as Criterion not met in all remaining cases.

C=C(C)[C@H]1Cc2c(ccc3c2O[C@@H]2COc4cc(OC)c(OC)cc4[C@@H]2C3=O)O1 ... Criterion met
COc1cc(-c2coc3cc4c(cc3c2=O)C=CC(C)(C)O4)ccc1OC[C@@H](O)C(C)(C)O ... Criterion not met
COc1cc2c(cc1OC)[C@]1(O)C(=O)c3ccc4c(c3O[C@@H]1CO2)C=CC(C)(C)O4 ... Criterion met
COc1cc(-c2coc3cc4c(c(OC)c3c2=O)C=CC(C)(C)O4)ccc1OC[C@@H](O)C(C)(C)O ... Criterion not met
COc1cc(-c2coc3cc4c(cc3c2=O)C=CC(C)(C)O4)ccc1OCC=C(C)C ... Criterion not met
COc1cc(-c2coc3cc4c(c(OC)c3c2=O)C=CC(C)(C)O4)ccc1OCC=C(C)C ... Criterion not met
C=C(C)[C@H]1Cc2c(ccc3c2O[C@@H]2COc4cc(OC)c(OC)cc4[C@]2(O)C3=O)O1 ... Criterion met
